Record set of IC50 for target or system human LXRβ (Homo sapiens).

query smiles: NS(=O)(=O)c1cccc(Oc2ccc(Cl)c(-c3ncnc4c(Cl)cccc34)c2)c1
IC50, nM: 151
--
query smiles: CNS(=O)(=O)c1cccc(Oc2ccc(Cl)c(-c3ncnc4c(C(F)(F)F)cccc34)c2)c1
IC50, nM: 4
--
query smiles: CN(CCCCS(=O)(=O)c1cccc(Oc2ccc(F)c(-c3ncnc4c(Cl)cccc34)c2)c1)S(C)(=O)=O
IC50, nM: 1020
--
query smiles: N#CCCCS(=O)(=O)c1cccc(Oc2ccc(Cl)c(-c3ncnc4c(Cl)cccc34)c2)c1
IC50, nM: 105
--
query smiles: N#CCS(=O)(=O)c1cccc(Oc2ccc(F)c(-c3ncnc4c(Cl)cccc34)c2)c1
IC50, nM: 286
--
query smiles: Cc1nc(-c2cc(Oc3cccc(S(=O)(=O)CCCNS(C)(=O)=O)c3)ccc2Cl)c2cccc(C(F)(F)F)c2n1
IC50, nM: 343
--
query smiles: CNCCCCS(=O)(=O)c1cccc(Oc2ccc(F)c(-c3ncnc4c(Cl)cccc34)c2)c1
IC50, nM: 3590
--
query smiles: NS(=O)(=O)c1cccc(Oc2ccc(F)c(-c3ncnc4c(C(F)(F)F)cccc34)c2)c1
IC50, nM: 121
--
query smiles: CS(=O)(=O)CCCS(=O)(=O)c1cccc(Oc2ccc(Cl)c(-c3ncnc4c(C(F)(F)F)cccc34)c2)c1
IC50, nM: 140
--
query smiles: NC(=O)CCCCS(=O)(=O)c1cccc(Oc2ccc(F)c(-c3ncnc4c(C(F)(F)F)cccc34)c2)c1
IC50, nM: 130
--
query smiles: NC(=O)CCCS(=O)(=O)c1cccc(Oc2ccc(Cl)c(-c3ncnc4c(C(F)(F)F)cccc34)c2)c1
IC50, nM: 41
--
query smiles: N#CCS(=O)(=O)c1cccc(Oc2ccc(Cl)c(-c3ncnc4c(C(F)(F)F)cccc34)c2)c1
IC50, nM: 40
--
query smiles: CNS(=O)(=O)c1cccc(Oc2ccc(F)c(-c3ncnc4c(C(F)(F)F)cccc34)c2)c1
IC50, nM: 10
--
query smiles: N#CCCCS(=O)(=O)c1cccc(Oc2ccc(F)c(-c3ncnc4c(C(F)(F)F)cccc34)c2)c1
IC50, nM: 112
--
query smiles: CS(=O)(=O)NCCCS(=O)(=O)c1cccc(Oc2ccc(F)c(-c3ncnc4c(Cl)cccc34)c2)c1
IC50, nM: 471
--
query smiles: N#CCCCS(=O)(=O)c1cccc(Oc2ccc(F)c(-c3ncnc4c(Cl)cccc34)c2)c1
IC50, nM: 274
--
query smiles: CS(=O)(=O)NCCCS(=O)(=O)c1cccc(Oc2ccc(F)c(-c3ncnc4c(C(F)(F)F)cccc34)c2)c1
IC50, nM: 157
--
query smiles: CNCCCS(=O)(=O)c1cccc(Oc2ccc(F)c(-c3ncnc4c(Cl)cccc34)c2)c1
IC50, nM: 965
--
query smiles: CS(=O)(=O)c1cc(Oc2ccc(F)c(-c3ncnc4c(Cl)cccc34)c2)ccc1C#N
IC50, nM: 1060
--
query smiles: CS(=O)(=O)c1cc(Oc2ccc(Cl)c(-c3ncnc4c(C(F)(F)F)cccc34)c2)ccc1C#N
IC50, nM: 152
--
query smiles: NCCCS(=O)(=O)c1cccc(Oc2ccc(F)c(-c3ncnc4c(C(F)(F)F)cccc34)c2)c1
IC50, nM: 116
--
query smiles: NC(=O)CCCS(=O)(=O)c1cccc(Oc2ccc(Cl)c(-c3ncnc4c(Cl)cccc34)c2)c1
IC50, nM: 126
